Tested on: liver
assay.text: CCl4 induced hepatotoxicity in rats (serum AST/ALT)
Type: in vivo, rat
stated.conditions: 100 mg/kg ip, 48 h after 1 g/kg CCl4 (Table 33)
Structures can show the parent of a compound that is named as a salt.
The following molecules are shown together with reported AST values.

{"columns": ["molecule", "AST"],
 "data": [
  ["O=C(O)CCC(=O)O [Tris Succinate, reference compound]", "8.32 ± 2.65 10^3 units/L"],
  ["CCCCCCCCCCCCCCCCOC(=O)CCC(=O)O [Palmityl succinate]", "6.54 ± 3.61 10^3 units/L"],
  ["C[C@]12CCC(=O)C=C1CC[C@@H]1[C@@H]2[C@@H](O)C[C@@]2(C)[C@H]1CC[C@]2(O)C(=O)COC(=O)CCC(=O)O [Hydrocortisone 21-succinate, reference compound]", "6.18 ± 3.15 10^3 units/L"],
  ["CC(C)CCC[C@@H](C)[C@H]1CC[C@H]2[C@@H]3CC=C4C[C@@H](OS(=O)(=O)O)CC[C@]4(C)[C@H]3CC[C@]12C [Cholesteryl 3-sulfate, sodium salt]", "0.86 ± 0.35 10^3 units/L"],
  ["CCCCCCCCCCCCCCCCO [Palmityl Alcohol, reference compound]", "8.70 ± 3.00 10^3 units/L"]
]}
